Tested on: ApoB-100-associated lipoproteins
Test: Inhibition of the release of ApoB-100-associated lipoproteins from hepatic cells (HepG2), LDL immunoassay
Format: cell-based, human
Conditions: concentration at which adsorption of light (450 nm) is inhibited by 50% compared with solvent control
measuredAttribute: IC50 (nM)

a. CCOC(=O)c1cc2ccccc2n1Cc1ccc(C(C(=O)NC(CO)c2ccccc2)C2CCCCCC2)cc1 (single isomer, unassigned) [Example 21]
b. CCOC(=O)c1cc2cc(Cl)ccc2n1Cc1ccc(C(C(=O)NC(CO)c2ccccc2)C2CCCC2)cc1 (mixture of isomers) [Example 26]
c. O=C(NC(CO)c1ccccc1)C(c1ccc(Cn2ccc3ccc(Cl)cc32)cc1)C1CCCC1 (mixture of isomers) [Example 33]
d. CCOC(=O)c1cc2ccccc2n1Cc1ccc(C(C(=O)NC(CO)c2ccccc2)C2CCCCCC2)cc1 (mixture of isomers) [Example 20]
Form: Sort by [IC50] Order [ ascending ] Put the labels in the requested order and write them down. a, d, b, c

P. COc1cccc2c1ccn2Cc1ccc(C(C(=O)NC(CO)c2ccccc2)C2CCCC2)cc1 (mixture of isomers) [Example 36]
Q. COc1cccc2c1ccn2Cc1ccc(C(C(=O)NC(CO)c2ccccc2)C2CCCC2)cc1 (single isomer, unassigned) [Example 37]
I'm curious whether P or Q has the smaller IC50 number. Which is it? Give the label of your selection. Q

* * *

System: intestinal triglyceride absorption
Assay: Inhibition of intestinal triglyceride absorption in vivo (rats)
Parameters: species or system male Wistar rats
Details: p.o., fasting rats, postprandial serum triglyceride increase after tragacanth-olive oil loading
measuredAttribute: ED50

COc1cccc2c1ccn2Cc1ccc(C(C(=O)NC(CO)c2ccccc2)C2CCCC2)cc1 (single isomer, unassigned) [Example 37] : >2 mg/kg
CCOC(=O)c1cc2cc(Cl)ccc2n1Cc1ccc(C(C(=O)NC(CO)c2ccccc2)C2CCCC2)cc1 (single isomer, unassigned) [Example 27] : >2 mg/kg
O=C(NC(CO)c1ccccc1)C(c1ccc(Cn2c(-c3ccccc3)cc3ccccc32)cc1)C1CCCCCC1 (mixture of isomers) [Example 16] : >2 mg/kg
Cc1cn(Cc2ccc(C(C(=O)NC(CO)c3ccccc3)C3CCCCCC3)cc2)c2ccccc12 (mixture of isomers) [Example 29] : 3 mg/kg
O=C(NC(CO)c1ccccc1)C(c1ccc(Cn2ccc3ccc(Cl)cc32)cc1)C1CCCC1 (single isomer, unassigned) [Example 34] : 2 mg/kg

Documented ED50 of Cc1cc2ccccc2n1Cc1ccc(C(C(=O)NC(CO)c2ccccc2)C2CCCCCC2)cc1 (mixture of isomers) [Example 4] : <10 mg/kg
